# TARGET: human IR (hIR) (Homo sapiens, UniProt P06213)
# Construct: containing amino acid residues 979-1382 of human IR
# Sequence (P06213 979-1382): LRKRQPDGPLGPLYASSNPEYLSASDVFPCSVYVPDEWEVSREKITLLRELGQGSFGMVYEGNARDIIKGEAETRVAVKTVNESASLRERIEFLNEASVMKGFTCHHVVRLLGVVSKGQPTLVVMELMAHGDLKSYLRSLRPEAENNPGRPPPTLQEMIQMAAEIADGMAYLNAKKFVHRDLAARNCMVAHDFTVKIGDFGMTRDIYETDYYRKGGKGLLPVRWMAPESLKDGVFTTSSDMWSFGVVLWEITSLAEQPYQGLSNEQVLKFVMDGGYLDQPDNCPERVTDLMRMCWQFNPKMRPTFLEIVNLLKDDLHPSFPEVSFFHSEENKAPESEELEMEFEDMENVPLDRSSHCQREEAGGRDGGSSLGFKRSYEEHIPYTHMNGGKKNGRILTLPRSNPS
# PROTOCOL DESCRIPTION: TR-FRET kinase assay of purified hIR
# RUN PARAMETERS: activated hIR 0.5 nM, 10 μM ATP, values given as pIC50 category
OUTCOME MEASURE: IC50

Data request: // query IC50 value for entry COc1ccc(N2CCN(C(C)C)CC2)cc1Nc1nc(Nc2ccccc2C(N)=O)c2cc[nH]c2n1
Data returned: 1.26 to 3.98 nM

Data request: Moving on to COc1cc2c(cc1Nc1nc(Nc3cccc(F)c3C(N)=O)c3cc[nH]c3n1)N(C(C)=O)CCC2
Data returned: 5.01 to 158 nM

Data request: Moving on to COc1cc2c(cc1Nc1nc(Nc3cccc(F)c3C(=O)NCC(C)C)c3cc[nH]c3n1)N(C(=O)CN(C)C)CC2
Data returned: 1.26 to 3.98 nM

====

# TARGET: NIH-3T3 cells overexpressing human IR (Homo sapiens, UniProt P06213)
# Sequence (P06213 28-1382): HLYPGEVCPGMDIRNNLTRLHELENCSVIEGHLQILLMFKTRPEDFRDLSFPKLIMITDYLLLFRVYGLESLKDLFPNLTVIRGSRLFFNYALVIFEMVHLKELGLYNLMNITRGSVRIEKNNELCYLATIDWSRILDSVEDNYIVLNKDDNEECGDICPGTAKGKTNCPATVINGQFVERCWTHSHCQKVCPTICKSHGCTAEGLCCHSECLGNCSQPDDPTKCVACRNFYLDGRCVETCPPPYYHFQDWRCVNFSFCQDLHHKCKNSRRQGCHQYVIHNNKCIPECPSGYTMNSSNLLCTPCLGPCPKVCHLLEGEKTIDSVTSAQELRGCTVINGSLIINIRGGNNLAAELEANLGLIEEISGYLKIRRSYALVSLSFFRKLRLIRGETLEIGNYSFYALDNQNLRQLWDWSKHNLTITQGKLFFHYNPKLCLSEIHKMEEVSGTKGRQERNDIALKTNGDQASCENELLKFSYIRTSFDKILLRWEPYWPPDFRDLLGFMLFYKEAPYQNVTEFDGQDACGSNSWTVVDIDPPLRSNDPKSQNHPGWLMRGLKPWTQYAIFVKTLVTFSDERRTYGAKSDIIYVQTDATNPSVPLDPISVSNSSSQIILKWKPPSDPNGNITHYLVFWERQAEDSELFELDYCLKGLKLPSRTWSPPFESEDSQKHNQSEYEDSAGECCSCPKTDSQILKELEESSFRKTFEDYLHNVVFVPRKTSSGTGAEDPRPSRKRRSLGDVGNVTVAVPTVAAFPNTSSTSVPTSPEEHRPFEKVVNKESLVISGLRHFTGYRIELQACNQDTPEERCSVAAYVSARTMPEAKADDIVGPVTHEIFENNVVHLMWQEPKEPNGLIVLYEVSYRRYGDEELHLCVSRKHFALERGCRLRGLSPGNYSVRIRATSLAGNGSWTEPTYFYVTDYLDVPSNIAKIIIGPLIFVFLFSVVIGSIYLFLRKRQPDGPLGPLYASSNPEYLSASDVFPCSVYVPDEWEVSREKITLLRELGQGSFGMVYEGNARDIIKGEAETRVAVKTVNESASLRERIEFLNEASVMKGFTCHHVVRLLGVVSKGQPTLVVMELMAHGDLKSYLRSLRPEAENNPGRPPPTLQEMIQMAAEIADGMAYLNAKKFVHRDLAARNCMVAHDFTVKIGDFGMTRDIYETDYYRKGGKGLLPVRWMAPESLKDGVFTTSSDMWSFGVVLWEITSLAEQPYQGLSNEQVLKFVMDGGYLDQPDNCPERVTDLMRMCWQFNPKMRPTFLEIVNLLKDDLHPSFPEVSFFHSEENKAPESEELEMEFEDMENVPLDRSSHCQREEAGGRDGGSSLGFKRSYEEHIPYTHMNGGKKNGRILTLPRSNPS
# PROTOCOL DESCRIPTION: IR cellular autophosphorylation (DELFIA)
# RUN PARAMETERS: 2 h compound, insulin 3 ug/ml for 15 minutes, IC50 category
# Method: NIH-3T3 cells overexpressing human IGF-1R or IR were plated in 96-well plates (10,000 cells/well) in culture media containing 10% fetal bovine serum and incubated at 37° C. in a 5% CO2 incubator. Twenty four hours post-plating, cells were treated with different concentrations of test compounds ranging from 30 uM to 1.5 nM. […] The fluorescence signal for cells treated with compounds was expressed as percent relative to 100% stimulation (IGF-1 or insulin stimulated signal).
pIC50: −log10 of the molar value.
The reader will find reported pIC50 values listed item by item below.

Past entries and their recorded results:
COc1cc2c(cc1Nc1nc(Nc3cccc(F)c3C(N)=O)c3c(F)c[nH]c3n1)N(C(=O)CN(C)C)CC2 [Example 252] ... > 7.00
CNC(=O)c1c(F)cccc1Nc1nc(Nc2cc(NC(=O)CN(C)C)c(C)cc2OC)nc2[nH]ccc12 [Example 256] ... 6.30 to 7.00
CNC(=O)c1c(F)cccc1Nc1nc(Nc2cc3c(cc2OC)CCN3C(=O)CN2CCCC2)nc2[nH]ccc12 [Example 139] ... 6.30 to 7.00
CNC(=O)c1c(F)cccc1Nc1nc(Nc2cc3c(cc2OC)CCN(C(C)C)C3)nc2[nH]ccc12 [Example 235] ... < 6.30
CNC(=O)c1c(F)cccc1Nc1nc(Nc2cc3c(cc2OC)CCCN3C(=O)CN2CCCCC2)nc2[nH]ccc12 [Example 217] ... > 7.00
CCCN1CCCC(c2ccc(Nc3nc(Nc4ccccc4C(N)=O)c4cc[nH]c4n3)c(OC)c2)C1 (centres unmarked) [Example 3] ... > 7.00

API: the following record is the query input.
Data request: // query pIC50 value for entry COc1cc2c(cc1Nc1nc(Nc3cccc(F)c3C(N)=O)c3cc[nH]c3n1)N(C(=O)CN1CCC1)CC2 [Example 143]
Data returned: 6.30 to 7.00

====

# TARGET: human IR (hIR) (Homo sapiens)
# Construct: containing amino acid residues 979-1382 of human IR
# PROTOCOL DESCRIPTION: TR-FRET kinase assay of purified hIR
# RUN PARAMETERS: activated hIR 0.5 nM, 10 μM ATP, values given as pIC50 category
OUTCOME MEASURE: IC50

Past entries and their recorded results:
COc1cc(N2CCN(C(C)C)CC2)ccc1Nc1nc(Nc2cc(F)cc(OC)c2C(N)=O)c2cc[nH]c2n1 ... 1.26 to 3.98 nM
Cc1ccc(NC(=O)CN(C)C)cc1Nc1nc(Nc2cc(F)c(F)cc2C(N)=O)c2cc[nH]c2n1 ... 0.251 to 1 nM
COc1cc(N2CCN(C(C)C)CC2)ccc1Nc1nc(Nc2cc(F)ccc2C(N)=O)c2cc[nH]c2n1 ... 0.251 to 1 nM
CCCNC(=O)c1c(F)cc(F)cc1Nc1nc(Nc2cc3c(cc2OC)CCN3C(=O)CN(C)C)nc2[nH]ccc12 ... 1.26 to 3.98 nM

Data request: // query IC50 value for entry CCN(C)CC(=O)N1CCc2cc(OC)c(Nc3nc(Nc4cccc(F)c4C(N)=O)c4cc[nH]c4n3)cc21
Data returned: 1.26 to 3.98 nM
